Value source: ChEMBL document CHEMBL1177892

System: Rattus norvegicus
Experiment: Toxicity in albino rat at 20 mg/kg assessed as ulcer index
Details: in vivo
Items are presented alongside their recorded UI.
Enter the number alone.

// solved cases for UI follow
Molecule	Property label	Readout value
COC(=O)C(=O)NC1=C(C#N)C2C(N3CCCC3)CCCCN2C(=O)N1c1ccccc1 (stereo unspecified)	UI	2.2
CCOC(=O)C(=O)NC1=C(C#N)C2C(N3CCCC3)CCCCN2C(=O)N1c1ccccc1 (stereo unspecified)	UI	2.5

Which UI is listed for N#CC1=C(/N=C/Nc2ccc([N+](=O)[O-])cc2)N(c2ccccc2)C(=O)N2CCCCC(N3CCCC3)C12 (stereo unspecified) ?
4.8

What measured UI goes with N#CC1=C(NCC(=O)O)N(c2ccccc2)C(=O)N2CCCCC(N3CCCC3)C12 (stereo unspecified) ?
5.4

# input molecule: O=C([O-])Cc1ccccc1Nc1c(Cl)cccc1Cl.[Na+] [DICLOFENAC SODIUM] ; wanted: its UI
9

Requested read-out: UI. Entry: N#CC1=C(/N=C/c2ccc([N+](=O)[O-])cc2)N(c2ccccc2)C(=O)N2CCCCC(N3CCCC3)C12 (stereo unspecified)
3.6

---

We begin with a simple list: items and their reported Activity.
Tested on: Rattus norvegicus
Assay: Toxicity in albino rat at 20 mg/kg assessed as ulcerogenicity
Settings: in vivo
Numbers only here, please. The scale is %.

Some compounds with known Activity results, for comparison:
Compound	Property label	Readout value
COC(=O)C(=O)NC1=C(C#N)C2C(N3CCCC3)CCCCN2C(=O)N1c1ccccc1 (stereo unspecified)	Activity	1
N#CC1=C(NCC(=O)O)N(c2ccccc2)C(=O)N2CCCCC(N3CCCC3)C12 (stereo unspecified)	Activity	4
CCOC(=O)C(=O)NC1=C(C#N)C2C(N3CCCC3)CCCCN2C(=O)N1c1ccccc1 (stereo unspecified)	Activity	1
O=C([O-])Cc1ccccc1Nc1c(Cl)cccc1Cl.[Na+] [DICLOFENAC SODIUM]	Activity	6
N#CC1=C(/N=C/Nc2ccc([N+](=O)[O-])cc2)N(c2ccccc2)C(=O)N2CCCCC(N3CCCC3)C12 (stereo unspecified)	Activity	3

Moving on to another compound below.
For the compound N#CC1=C(/N=C/c2ccc([N+](=O)[O-])cc2)N(c2ccccc2)C(=O)N2CCCCC(N3CCCC3)C12 (stereo unspecified) , what Activity is on record?
2

---

Tested on: Rattus norvegicus
Test: Antiinflammatory activity in ip dosed albino rat assessed as inhibition of carrageenan-induced paw oedema administered 1 hr before carrageenan challenge measured after 3 hrs relative to control
Type: functional, organism-based
Property label: ED50 (µmol/kg)
// units = µmol/kg; emit number, no label

Solved cases below.
Compound	Unit abbrev	ED50
N#CC1=C(/N=C/c2ccc([N+](=O)[O-])cc2)N(c2ccccc2)C(=O)N2CCCCC(N3CCCC3)C12 (configuration not stated)	µmol/kg	7.14
CCOC(=O)C(=O)NC1=C(C#N)C2C(N3CCCC3)CCCCN2C(=O)N1c1ccccc1 (configuration not stated)	µmol/kg	9.13
COC(=O)C(=O)NC1=C(C#N)C2C(N3CCCC3)CCCCN2C(=O)N1c1ccccc1 (configuration not stated)	µmol/kg	10.6
N#Cc1c2n(c(=O)n(-c3ccccc3)c1=N)CCCCC2N1CCCC1 (configuration not stated)	µmol/kg	8.5
N#CC1=C(N)N(c2ccccc2)C(=O)N2CCCCC(N3CCCC3)C12 (configuration not stated)	µmol/kg	6.61
O=C([O-])Cc1ccccc1Nc1c(Cl)cccc1Cl.[Na+] [DICLOFENAC SODIUM]	µmol/kg	7.26

We next turn to a different compound, shown below.
So what ED50 did N#CC1=C(NCC(=O)O)N(c2ccccc2)C(=O)N2CCCCC(N3CCCC3)C12 (configuration not stated) get with Rattus norvegicus?
10.3
